self-splicing fitness (ln) values for the sequences below.
Experiment: self-splicing fitness, log relative to wild type (ln ratio); higher = more splicing; Tetrahymena group I intron in knt gene, E. coli kanamycin selection, DiMSum; sequences stand for … in CUCUCU…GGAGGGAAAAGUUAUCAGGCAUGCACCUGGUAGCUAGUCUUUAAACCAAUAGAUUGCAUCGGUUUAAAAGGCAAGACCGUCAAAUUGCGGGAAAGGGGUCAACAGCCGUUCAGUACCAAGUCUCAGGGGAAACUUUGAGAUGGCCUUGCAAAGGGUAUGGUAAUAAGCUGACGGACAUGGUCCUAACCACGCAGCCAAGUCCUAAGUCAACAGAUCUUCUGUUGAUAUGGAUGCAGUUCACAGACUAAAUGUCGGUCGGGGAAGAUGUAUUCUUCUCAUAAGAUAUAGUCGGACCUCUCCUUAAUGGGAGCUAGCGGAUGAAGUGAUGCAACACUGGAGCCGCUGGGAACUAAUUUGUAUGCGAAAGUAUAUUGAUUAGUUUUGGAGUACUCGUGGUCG;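 note: selection with 25 µg/mL kanamycin versus none on LB agar overnight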
Conditions: 37 °C
// print number alone

Consider the reported self-splicing fitness (ln) for these sequences:
{"columns": ["entry-sequence", "self-splicing fitness (ln)"],
 "data": [
  ["UUUUAGCAAUAUUACGCCUA", -0.553],
  ["UAGAAGCAAUAUUACGAUCG", 0.149],
  ["GUACAGCAAUAUUACGGCCG", -0.534],
  ["AGUCAGCAAUAUUACGUUGA", -3.49],
  ["CGACAGCAAUAUUACGGUCC", -0.69],
  ["CAUGAGCAAUAUUACGAUUA", -2.02],
  ["UGAAAGCAAUAUUACGUUGG", -1.66],
  ["GAUGAGCAAUAUUACGACCU", -1.36],
  ["CGUCAGCAAUAUUACGCGAA", -2.51],
  ["GCACAGCAAUAUUACGAAGC", -0.749]
]}

Lookup: Give its self-splicing fitness (ln) value. Item: CCGGAGCAAUAUUACGGUGC
Found: -1.63

Lookup: Entry AUGCAGCAAUAUUACGAAAG has what self-splicing fitness (ln)?
Found: -3.15

Lookup: Suppose we examine the sequence GCUAAGCAAUAUUACGGUAA ; what self-splicing fitness (ln) value has been reported?
Found: -1.04
